test system: Amaranthus retroflexus (AMARE); assay: Herbicidal post-emergence action, AMARE; format: in vivo; settings: 1280 g/ha, assessed visually after ca. 3 weeks vs untreated controls (Table B11)
readout type: herbicidal effect in percent, AMARE

{"compound": "CC1CC1c1ccnc(Cl)c1C(=O)Nc1ncns1 (centres unmarked)", "readout type": "herbicidal effect in percent, AMARE", "measured value": "100%"}

Per the records, this compound ( O=C(Nc1ncns1)c1c(C2CC2)ccnc1Cl ) has herbicidal effect in percent, AMARE equal to 100%

Per the records, this compound ( C=C(C)c1ccnc(Cl)c1C(=O)Nc1ncns1 ) has herbicidal effect in percent, AMARE equal to 90%

Per the records, this compound ( O=C(Nc1ncns1)c1c(C2CC2)ccnc1F ) has herbicidal effect in percent, AMARE equal to 100%

Per the records, this compound ( O=C(Nc1ncns1)c1c(C2CC2(F)F)ccnc1F (centres unmarked) ) has herbicidal effect in percent, AMARE equal to 90%

* * *

tested on: Amaranthus retroflexus (AMARE); assay: Herbicidal post-emergence action, AMARE; assay type: in vivo; details: 1280 g/ha, assessed visually after ca. 3 weeks vs untreated controls (Table B11)
readout type: herbicidal effect in percent, AMARE (%)
Output spec: scalar in %, unitless text.

Use the examples below as a reference point.
{"molecule": "O=C(Nc1ncns1)c1c(C2CC2)ccnc1C(F)(F)F [Example I-006]", "readout type": "herbicidal effect in percent, AMARE", "u": "%", "measured value": 100}
{"molecule": "O=C(Nc1ncns1)c1cnccc1C1CC1 [Example I-008]", "readout type": "herbicidal effect in percent, AMARE", "u": "%", "measured value": 100}
{"molecule": "O=C(Nc1nc(Br)ns1)c1c(C2CC2)ccnc1Cl [Example I-010]", "readout type": "herbicidal effect in percent, AMARE", "u": "%", "measured value": 90}

// next item, herbicidal effect in percent, AMARE requested
Per the records, this molecule ( O=C(Nc1nc(Cl)ns1)c1c(C2CC2)ccnc1Cl [Example I-013] ) has herbicidal effect in percent, AMARE equal to 90

* * *

Known herbicidal effect in percent, STEME of a selection of molecules
Test system: Stellaria media (STEME)
Test: Herbicidal post-emergence action, STEME
Format: in vivo
Conditions: 320 g/ha, assessed visually after ca. 3 weeks vs untreated controls (Table D4)
Source text: Seeds of mono- and dicotyledonous weed plants were sown in plastic pots (double sowings with one species of mono- and one species of dicotyledonous weed plants per pot), in sandy loam, covered with soil and grown under controlled growth conditions. 2 to 3 weeks after sowing, the test plants were sprayed in the single-leaf stage. […]
Output spec: scalar in %, unitless text.

Use the examples below as a reference point.
{"molecule": "O=C(Nc1nc(Cl)ns1)c1c(C2CC2)ccnc1Cl [Example I-013]", "herbicidal effect in percent, STEME / %": 90}
{"molecule": "O=C(Nc1ncns1)c1c(C2CC2)ccnc1Cl [Example I-003]", "herbicidal effect in percent, STEME / %": 100}
{"molecule": "O=C(Nc1nc(Br)ns1)c1c(C2CC2)ccnc1Cl [Example I-010]", "herbicidal effect in percent, STEME / %": 90}

Case CC1CC1c1ccnc(Cl)c1C(=O)Nc1ncns1 (centres unmarked) [Example I-004] , Stellaria media (STEME), herbicidal effect in percent, STEME recorded as 90

Case O=C(Nc1ncns1)c1c(C2CC2)ccnc1F [Example I-005] , Stellaria media (STEME), herbicidal effect in percent, STEME recorded as 100

* * *

Known herbicidal effect in percent, POAAN of a selection of molecules
tested on: Poa annua (POAAN); assay: Herbicidal pre-emergence action, POAAN; format: in vivo; settings: 1280 g/ha, visual grading after ca. 3 weeks vs untreated controls (Table A7)
Output spec: scalar in %, unitless text.

Use the examples below as a reference point.
{"molecule": "O=C(Nc1ncns1)c1c(C2CC2)ccnc1Cl [Example I-003]", "readout type": "herbicidal effect in percent, POAAN", "measured value": 100}
{"molecule": "COc1nccc(C2CC2)c1C(=O)Nc1ncns1 [Example I-007]", "readout type": "herbicidal effect in percent, POAAN", "measured value": 90}
{"molecule": "O=C(Nc1ncns1)c1cnccc1C1CC1 [Example I-008]", "readout type": "herbicidal effect in percent, POAAN", "measured value": 90}
{"molecule": "O=C(Nc1ncns1)c1c(C2CC2)ccnc1C(F)(F)F [Example I-006]", "readout type": "herbicidal effect in percent, POAAN", "measured value": 90}

// next item, herbicidal effect in percent, POAAN requested
Per the records, this molecule ( O=C(Nc1ncns1)c1c(C2CC2)ccnc1F [Example I-005] ) has herbicidal effect in percent, POAAN equal to 100

* * *

test system: Poa annua (POAAN); assay: Herbicidal post-emergence action, POAAN; format: in vivo; details: 1280 g/ha, assessed visually after ca. 3 weeks vs untreated controls (Table B8)
readout type: herbicidal effect in percent, POAAN
Numeric answer plus unit only.

Use the examples below as a reference point.
{"test smiles": "O=C(Nc1nc(Br)ns1)c1c(C2CC2)ccnc1Cl", "target under test": "Poa annua (POAAN)", "readout type": "herbicidal effect in percent, POAAN", "measured value": "90%"}
{"test smiles": "O=C(Nc1ncns1)c1c(C2CC2)ccnc1F", "target under test": "Poa annua (POAAN)", "readout type": "herbicidal effect in percent, POAAN", "measured value": "100%"}
{"test smiles": "O=C(Nc1ncns1)c1cnccc1C1CC1", "target under test": "Poa annua (POAAN)", "readout type": "herbicidal effect in percent, POAAN", "measured value": "90%"}

Per the records, this compound ( O=C(Nc1ncns1)c1c(C2CC2)ccnc1C(F)(F)F ) has herbicidal effect in percent, POAAN equal to 90%

Per the records, this compound ( O=C(Nc1ncns1)c1c(C2CC2)ccnc1Cl ) has herbicidal effect in percent, POAAN equal to 100%

Per the records, this compound ( O=C(Nc1nc(Cl)ns1)c1c(C2CC2)ccnc1Cl ) has herbicidal effect in percent, POAAN equal to 90%

* * *

test system: Matricaria inodora (MATIN); assay: Herbicidal post-emergence action, MATIN; assay type: in vivo; details: 1280 g/ha, assessed visually after ca. 3 weeks vs untreated controls (Table B6)
Known herbicidal effect in percent, MATIN of a selection of compounds
Output spec: scalar in %, unitless text.

{"compound": "O=C(Nc1nc(Br)ns1)c1c(C2CC2)ccnc1Cl [Example I-010]", "target under test": "Matricaria inodora (MATIN)", "herbicidal effect in percent, MATIN / %": 90}

Per the records, this compound ( O=C(Nc1ncns1)c1c(C2CC2)ccnc1Cl [Example I-003] ) has herbicidal effect in percent, MATIN equal to 100

Per the records, this compound ( O=C(Nc1nc(Cl)ns1)c1c(C2CC2)ccnc1Cl [Example I-013] ) has herbicidal effect in percent, MATIN equal to 90

Per the records, this compound ( CC1CC1c1ccnc(Cl)c1C(=O)Nc1ncns1 (stereo not drawn) [Example I-004] ) has herbicidal effect in percent, MATIN equal to 100

Per the records, this compound ( O=C(Nc1ncns1)c1cnccc1C1CC1 [Example I-008] ) has herbicidal effect in percent, MATIN equal to 100

Per the records, this compound ( O=C(Nc1ncns1)c1c(C2CC2)ccnc1F [Example I-005] ) has herbicidal effect in percent, MATIN equal to 100

* * *

test system: Matricaria inodora (MATIN); assay: Herbicidal pre-emergence action, MATIN; assay type: in vivo; details: 1280 g/ha, visual grading after ca. 3 weeks vs untreated controls (Table A6)
Known herbicidal effect in percent, MATIN of a selection of compounds
Numeric answer plus unit only.

Use the examples below as a reference point.
{"compound": "O=C(Nc1ncns1)c1c(C2CC2)ccnc1F", "target under test": "Matricaria inodora (MATIN)", "herbicidal effect in percent, MATIN": "100%"}
{"compound": "O=C(Nc1nc(Cl)ns1)c1c(C2CC2)ccnc1Cl", "target under test": "Matricaria inodora (MATIN)", "herbicidal effect in percent, MATIN": "100%"}
{"compound": "O=C(Nc1ncns1)c1c(C2CC2(F)F)ccnc1F (stereo not shown)", "target under test": "Matricaria inodora (MATIN)", "herbicidal effect in percent, MATIN": "100%"}

Per the records, this compound ( Cc1nsc(NC(=O)c2c(C3CC3)ccnc2Cl)n1 ) has herbicidal effect in percent, MATIN equal to 100%

Per the records, this compound ( C=C(C)c1ccnc(Cl)c1C(=O)Nc1ncns1 ) has herbicidal effect in percent, MATIN equal to 100%

Per the records, this compound ( O=C(Nc1ncns1)c1c(C2CC2)ccnc1C(F)(F)F ) has herbicidal effect in percent, MATIN equal to 100%

Per the records, this compound ( COc1nccc(C2CC2(F)F)c1C(=O)Nc1ncns1 (stereo not shown) ) has herbicidal effect in percent, MATIN equal to 90%

Per the records, this compound ( O=C(Nc1ncns1)c1c(C2CC2)ccnc1Cl ) has herbicidal effect in percent, MATIN equal to 100%

Per the records, this compound ( O=C(Nc1nc(Br)ns1)c1c(C2CC2)ccnc1Cl ) has herbicidal effect in percent, MATIN equal to 100%

Per the records, this compound ( CC1CC1c1ccnc(Cl)c1C(=O)Nc1ncns1 (stereo not shown) ) has herbicidal effect in percent, MATIN equal to 90%
